Before we begin, note that these pIC50 values for MAGL (Homo sapiens) originate from several publications.
pIC50: −log10 of the molar value.
measure-name: pIC50

Answered cases to consult:
[[record]]
molecule = "Cc1c(C(=O)N2CC(N[C@H]3CCN(C(=O)c4cscn4)C3)C2)sc2cc(F)ccc12"
measure_name = "pIC50"
val = 6.82

[[record]]
molecule = "O=C(c1ccc(-c2cccc(C(F)(F)F)c2)cc1)N1CC(N[C@H]2CN(C(=O)c3ccccc3)CC2F)C1 (single isomer, unassigned)"
measure_name = "pIC50"
val = 7.18

[[record]]
molecule = "Cc1cn(-c2ccc(F)cc2)c2ccc(C(=O)N3CCN(C4CN(C(=O)c5nccs5)C4)CC3)cc12"
measure_name = "pIC50"
val = 8.00

[[record]]
molecule = "Cc1cc(-n2ccc3cc(C(=O)N4CC(N5CCN(C(=O)c6ccccc6)CC5)C4)ccc32)ccc1C#N"
measure_name = "pIC50"
val = 7.85

[[record]]
molecule = "O=C(c1ccc2nn(-c3cccc(C(F)(F)F)c3)cc2c1)N1CC(N2CCN(C(=O)c3nccs3)CC2)C1"
measure_name = "pIC50"
val = 8.30

[[record]]
molecule = "O=C(c1ccccc1)N1CCN(C2CN(C(=O)c3ccc(F)c(Cc4ccc(C(F)(F)F)cc4)c3)C2)CC1"
measure_name = "pIC50"
val = 5.60

[[record]]
molecule = "NC(=O)[C@H]1CCN(C(=O)N2CC3(CC(CC4=C5C=CC=[N+]5[B-](F)(F)n5cccc54)C3)C2)C1"
measure_name = "pIC50"
val = 8.70

[[record]]
molecule = "O=C(c1ccc(Oc2ccc(Cl)cn2)cc1)N1CC(N2CCN(C(=O)c3cscn3)CC2)C1"
measure_name = "pIC50"
val = 6.28

[[record]]
molecule = "O=C1CO[C@H]2CCN(C(=O)N3CC(C#Cc4c(F)cccc4F)C3)C[C@H]2N1"
measure_name = "pIC50"
val = 7.47

[[record]]
molecule = "CC(C)=Cc1c(C(=O)N2CC(N[C@H]3CCN(C(=O)c4ccccc4)C3)C2)sc2cc(C(F)(F)F)ccc12"
measure_name = "pIC50"
val = 7.21


[1] O=C(c1nc2cc(-c3ccc(F)cc3)ccc2[nH]1)N1CC(N2CCN(C(=O)c3nccs3)CC2)C1
[2] O=C(c1ccc2c(ccn2-c2ccc(F)c(F)c2)c1)N1CC(N2CCN(c3ccccc3)C(=O)C2)C1
Prompt: Quick check, higher pIC50 between 1 and 2 ? Give the label of your selection.
Completion: 2

[A] Cc1nc2cc(Cl)ccc2cc1C(=O)N1CC(N2CCN(C(=O)c3nccs3)CC2)C1
[B] O=C1CO[C@H]2CCN(C(=O)N3CCC(C(c4ccc(F)cc4)c4ccc(F)cc4)CC3)C[C@@H]2N1 (single isomer, unassigned)
Prompt: Quick check, higher pIC50 between A and B ? Give the label of your selection.
Completion: B
